Measured values drawn from ChEMBL document CHEMBL1130203 for this set.

Test name: Oral Bioavailability was determined in Dogs after Peroral administration
Assay type: ADME, organism-based, Canis lupus familiaris
Assay context: dog, in vivo
Metric name: bioavailability (%)
Number in %, nothing else.

Lab note: measured bioavailability of CO/N=C1\CN(c2nc3c(cc2F)c(=O)c(C(=O)O)cn3C2CC2)CC1CN (stereo in doubt; 20) was 71

---

System: Staphylococcus aureus
Test name: Minimum inhibitory concentration (MIC) against Staphylococcus aureus 241
Type: functional
Assay context: Staphylococcus aureus; read-out: MIC
Metric name: MIC
Entry format: amount then unit.

# count of solved cases: 3
| Compound | Experimental system | MIC |
| --- | --- | --- |
| NCC1CN(c2nc3c(cc2F)c(=O)c(C(=O)O)cn3C2CC2)C/C1=N\O (centres undefined) | Staphylococcus aureus | 8 mg/L |
| CCn1cc(C(=O)O)c(=O)c2cc(F)c(N3C/C(=N\OC)C(CN)C3)c(F)c21 (centres undefined) | Staphylococcus aureus | 4 mg/L |
| CO/N=C1\CN(c2c(F)cc3c(=O)c(C(=O)O)cn(C4CC4)c3c2F)CC1CN (centres undefined) | Staphylococcus aureus | 0.5 mg/L |

Kindly consider the entry below.
Lab note: measured MIC of CO/N=C1\CN(c2c(F)cc3c(=O)c(C(=O)O)cn(C4CC4)c3c2Cl)CC1CN (centres undefined) was 1 mg/L
